These measurements were taken from ChEMBL document CHEMBL4340507.

# SYSTEM_UNDER_TEST: Proto-oncogene tyrosine-protein kinase Src (Homo sapiens, UniProt P12931)
# Sequence (P12931 2-536 limits assumed): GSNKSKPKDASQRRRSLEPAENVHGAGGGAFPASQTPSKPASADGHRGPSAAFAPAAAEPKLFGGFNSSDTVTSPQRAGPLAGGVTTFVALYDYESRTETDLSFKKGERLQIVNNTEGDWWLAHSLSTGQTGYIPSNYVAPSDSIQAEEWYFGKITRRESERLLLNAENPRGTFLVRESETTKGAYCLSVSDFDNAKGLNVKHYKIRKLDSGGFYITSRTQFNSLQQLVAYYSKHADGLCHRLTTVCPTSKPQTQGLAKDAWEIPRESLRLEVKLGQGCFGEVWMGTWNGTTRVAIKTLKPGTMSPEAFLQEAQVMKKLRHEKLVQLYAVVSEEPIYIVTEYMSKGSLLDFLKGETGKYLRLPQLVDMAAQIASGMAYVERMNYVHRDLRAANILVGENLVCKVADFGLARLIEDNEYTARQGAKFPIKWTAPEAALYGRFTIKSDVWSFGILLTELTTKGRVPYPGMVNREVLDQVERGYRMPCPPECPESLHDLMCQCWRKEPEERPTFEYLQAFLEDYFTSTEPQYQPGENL
# PROTOCOL_DESCRIPTION: Inhibition of recombinant human full-length N-terminal GST-His6-fused SRC (M1 to L536 residues) expressed in Sf9 insect cells using Poly(Glu:Tyr)4:1 as substrate measured after 60 mins in presence of [gamma-33P]-ATP by scintillation counting method
VALUE_KIND: pIC50
Scale: negative log10 of molar concentration, which is what pIC50 denotes.

Ask: Notebook: pull reported pIC50 for Proto-oncogene tyrosine-protein kinase Src (Homo sapiens, UniProt P12931), entry `CN(CCc1ccc(-c2ccccc2)cc1)Cc1cn(C)c2ccc(C(=O)Nc3ccc(F)cc3)cc12`
Result: 5.06

###

# System: MCF7
# PROTOCOL_DESCRIPTION: Antiproliferative activity against human MCF7 cells assessed as decrease in cell viability measured after 72 hrs by MTT assay
# Format: functional, cell-based
# EXPERIMENTAL_CONTEXT: MCF7, 72 h
VALUE_KIND: pIC50
Expect pIC50 as a plain number equal to -log10 of the molar concentration.

Reference set (4 entries):
Cn1cc(CNCCc2ccc(-c3ccccc3)cc2)c2cc(CNc3ccc(F)cc3)ccc21 4.12
CC(=O)N(CCc1ccc(-c2ccccc2)cc1)Cc1cn(C)c2ccc(C(=O)Nc3ccc(C)cc3)cc12 4.89
CC(=O)N(CCc1ccc(-c2ccccc2)cc1)Cc1cn(C)c2ccc(C(=O)Nc3ccc(F)cc3)cc12 4.08
COc1cc(CN(C)Cc2cn(C)c3ccc(C(=O)Nc4ccc(F)cc4)cc23)cc(OC)c1OC 4.88

Please look at the following compound next.
Ask: What measured pIC50 goes with `CN(Cc1ccc(-c2ccccc2)cc1)Cc1cn(C)c2ccc(C(=O)Nc3ccc(F)cc3)cc12` ?
Result: 4.26

###

# SYSTEM_UNDER_TEST: Receptor tyrosine-protein kinase erbB-4 (Homo sapiens, UniProt Q15303)
# Sequence (Q15303 whole entry, the tested form may be a part): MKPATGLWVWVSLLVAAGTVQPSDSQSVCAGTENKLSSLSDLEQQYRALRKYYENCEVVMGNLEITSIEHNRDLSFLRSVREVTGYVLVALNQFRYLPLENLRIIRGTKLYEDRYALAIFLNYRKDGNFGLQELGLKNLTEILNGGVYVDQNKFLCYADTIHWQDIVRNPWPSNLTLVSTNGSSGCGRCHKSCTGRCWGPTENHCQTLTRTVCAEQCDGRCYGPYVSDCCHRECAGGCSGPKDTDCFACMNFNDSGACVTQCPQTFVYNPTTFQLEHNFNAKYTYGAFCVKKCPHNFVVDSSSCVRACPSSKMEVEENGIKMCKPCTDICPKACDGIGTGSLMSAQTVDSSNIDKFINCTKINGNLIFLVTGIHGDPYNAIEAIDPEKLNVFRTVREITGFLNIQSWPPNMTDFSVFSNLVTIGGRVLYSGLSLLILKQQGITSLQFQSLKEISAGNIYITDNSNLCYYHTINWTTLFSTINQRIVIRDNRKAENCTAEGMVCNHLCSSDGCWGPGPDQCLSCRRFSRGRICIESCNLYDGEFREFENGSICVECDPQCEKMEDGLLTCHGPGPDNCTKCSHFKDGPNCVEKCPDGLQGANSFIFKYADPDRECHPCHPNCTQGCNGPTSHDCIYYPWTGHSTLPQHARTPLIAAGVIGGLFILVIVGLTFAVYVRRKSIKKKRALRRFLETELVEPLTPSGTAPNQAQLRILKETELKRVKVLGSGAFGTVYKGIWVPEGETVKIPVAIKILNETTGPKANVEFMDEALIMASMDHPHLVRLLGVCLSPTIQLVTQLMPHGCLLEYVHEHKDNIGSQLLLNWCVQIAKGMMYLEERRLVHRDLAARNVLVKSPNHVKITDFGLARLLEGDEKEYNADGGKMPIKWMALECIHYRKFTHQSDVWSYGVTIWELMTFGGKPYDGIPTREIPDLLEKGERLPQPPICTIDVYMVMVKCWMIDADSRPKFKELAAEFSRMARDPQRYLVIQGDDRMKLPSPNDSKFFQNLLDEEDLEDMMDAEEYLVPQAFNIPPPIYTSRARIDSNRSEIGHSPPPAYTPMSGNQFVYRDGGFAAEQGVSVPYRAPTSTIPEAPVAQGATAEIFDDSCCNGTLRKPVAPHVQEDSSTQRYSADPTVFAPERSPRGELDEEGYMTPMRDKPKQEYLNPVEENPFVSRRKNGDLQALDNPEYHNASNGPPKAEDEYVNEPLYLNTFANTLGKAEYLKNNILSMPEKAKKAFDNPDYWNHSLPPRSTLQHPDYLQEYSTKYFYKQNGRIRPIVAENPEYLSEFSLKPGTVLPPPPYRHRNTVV
# PROTOCOL_DESCRIPTION: Inhibition of recombinant human N-terminal GST-His6-fused ERBB4 C-terminal domain (R676 to V1307 residues) expressed in Sf9 cells using Poly(Glu:Tyr)4:1 as substrate measured after 60 mins in presence of [gamma-33P]-ATP by scintillation counting method
VALUE_KIND: IC50

Ask: // IC50 lookup, key: `CN(CCc1ccc(-c2ccccc2)cc1)Cc1cn(C)c2ccc(C(=O)Nc3ccc(F)cc3)cc12`
Result: 7.9 µM

###

Measured pIC50, listed per entry for reference.
# System: MCF7
# PROTOCOL_DESCRIPTION: Antiproliferative activity against human MCF7 cells assessed as decrease in cell viability measured after 72 hrs by MTT assay
# Assay type: functional, cell-based
# EXPERIMENTAL_CONTEXT: MCF7, 72 h
// field semantics: pIC50 = negative decimal log of concentration (mol/L)

CCCn1cc(CNCCc2ccc(-c3ccccc3)cc2)c2cc(CNc3ccc(F)cc3)ccc21 5.90
O=C(Nc1ccc(F)cc1)c1ccc2c(ccn2Cc2ccc(-c3ccccc3)cc2)c1 4.97
CN(Cc1cccc2ccccc12)Cc1cn(C)c2ccc(CNc3ccc(F)cc3)cc12 5.34

Pending molecule:
Ask: Suppose we examine the molecule `COc1cccc2c1C(=O)c1c(O)c3c(c(O)c1C2=O)C[C@@](O)(C(=O)CO)C[C@@H]3O[C@H]1C[C@H](N)[C@H](O)[C@H](C)O1` ; what pIC50 value has been reported?
Result: 4.85
